test system: Methicillin-resistant S. epidermidis ET-024; format: cell-based, Staphylococcus epidermidis; settings: Methicillin-resistant ET-024, 18 h
Non-standard residues stand in square brackets, D forms with d. Residues, ends and D or L forms follow the SMILES beside them. N(4-Br-benzyl)Gly = O=C(O)CNCc1ccc(Br)cc1; NBzl(4-I)Gly = O=C(O)CNCc1ccc(I)cc1; Nphe = O=C(O)CNCc1ccccc1; Nlys = NCCCCNCC(=O)O
Readings of Minimal inhibitory concentration MRSE^d for the listed compounds
Hi! Could you send only the number? It should be in µg/mL, unit omitted.

Consider the worked cases shown below.
compound	Minimal inhibitory concentration MRSE^d [µg/mL]
NCCCCNCC(=O)N(CC(=O)N(CCCCN)CC(=O)N(CC(=O)N(CCCCN)CC(=O)N(CC(=O)N(CCCCN)CC(=O)N(CC(N)=O)Cc1ccc(Br)cc1)Cc1ccccc1)Cc1ccc(Br)cc1)Cc1ccccc1 [Compound 17] (H-[Nlys][Nphe][Nlys][N(4-Br-benzyl)Gly][Nlys][Nphe][Nlys][N(4-Br-benzyl)Gly]-NH2)	4
NCCCCNCC(=O)N(CC(=O)N(CCCCN)CC(=O)N(CC(=O)N(CCCCN)CC(=O)N(CC(=O)N(CCCCN)CC(=O)N(CC(=O)N(CCCCN)CC(=O)N(CC(N)=O)Cc1ccc(Br)cc1)Cc1ccc(Br)cc1)Cc1ccc(Br)cc1)Cc1ccc(Br)cc1)Cc1ccc(Br)cc1 [Compound 22] (H-[Nlys][N(4-Br-benzyl)Gly][Nlys][N(4-Br-benzyl)Gly][Nlys][N(4-Br-benzyl)Gly][Nlys][N(4-Br-benzyl)Gly][Nlys][N(4-Br-benzyl)Gly]-NH2)	1
NCCCCNCC(=O)N(CC(=O)N(CCCCN)CC(=O)N(CC(=O)N(CCCCN)CC(=O)N(CC(=O)N(CCCCN)CC(=O)N(CC(=O)N(CCCCN)CC(=O)N(CC(=O)N(CCCCN)CC(=O)N(CC(N)=O)Cc1ccccc1)Cc1ccccc1)Cc1ccccc1)Cc1ccccc1)Cc1ccccc1)Cc1ccccc1 [Compound 28] (H-[Nlys][Nphe][Nlys][Nphe][Nlys][Nphe][Nlys][Nphe][Nlys][Nphe][Nlys][Nphe]-NH2)	64
NCCCCNCC(=O)N(CC(=O)N(CCCCN)CC(=O)N(CC(=O)N(CCCCN)CC(=O)N(CC(=O)N(CCCCN)CC(=O)N(CC(N)=O)Cc1ccc(I)cc1)Cc1ccc(I)cc1)Cc1ccc(I)cc1)Cc1ccc(I)cc1 [Compound 14] (H-[Nlys][NBzl(4-I)Gly][Nlys][NBzl(4-I)Gly][Nlys][NBzl(4-I)Gly][Nlys][NBzl(4-I)Gly]-NH2)	2

// sample NCCCCNCC(=O)N(CC(=O)N(CCCCN)CC(=O)N(CC(=O)N(CCCCN)CC(=O)N(CC(=O)N(CCCCN)CC(=O)N(CC(=O)N(CCCCN)CC(=O)N(CC(N)=O)Cc1ccc(I)cc1)Cc1ccc(I)cc1)Cc1ccc(I)cc1)Cc1ccc(I)cc1)Cc1ccc(I)cc1 [Compound 23] (H-[Nlys][NBzl(4-I)Gly][Nlys][NBzl(4-I)Gly][Nlys][NBzl(4-I)Gly][Nlys][NBzl(4-I)Gly][Nlys][NBzl(4-I)Gly]-NH2) , its Minimal inhibitory concentration MRSE^d was 4

* * *

tested on: Methicillin-resistant S. aureus USA 300; type: cell-based, Staphylococcus aureus; conditions: USA 300, 18 h
Non-standard residues stand in square brackets, D forms with d. Residues, ends and D or L forms follow the SMILES beside them. N(4-Br-benzyl)Gly = O=C(O)CNCc1ccc(Br)cc1; N(4-F-Bzl)Gly = O=C(O)CNCc1ccc(F)cc1; Nphe = O=C(O)CNCc1ccccc1; Nlys = NCCCCNCC(=O)O
assay_metric: Minimal inhibitory concentration MRSA^c

Consider the worked cases shown below.
molecule	measured_on	Minimal inhibitory concentration MRSA^c
NCCCCNCC(=O)N(CC(=O)N(CCCCN)CC(=O)N(CC(=O)N(CCCCN)CC(=O)N(CC(=O)N(CCCCN)CC(=O)N(CC(N)=O)Cc1ccccc1)Cc1ccccc1)Cc1ccccc1)Cc1ccccc1 [Compound 10] (H-[Nlys][Nphe][Nlys][Nphe][Nlys][Nphe][Nlys][Nphe]-NH2)	Methicillin-resistant S. aureus USA 300	> 512 mg/L
NCCCCNCC(=O)N(CC(=O)N(CCCCN)CC(=O)N(CC(=O)N(CCCCN)CC(=O)N(CC(=O)N(CCCCN)CC(=O)N(CC(N)=O)Cc1ccc(F)cc1)Cc1ccccc1)Cc1ccc(F)cc1)Cc1ccccc1 [Compound 15] (H-[Nlys][Nphe][Nlys][N(4-F-Bzl)Gly][Nlys][Nphe][Nlys][N(4-F-Bzl)Gly]-NH2)	Methicillin-resistant S. aureus USA 300	> 512 mg/L

Note: attention shifts to another entry.
Let me check: NCCCCNCC(=O)N(CC(=O)N(CCCCN)CC(=O)N(CC(=O)N(CCCCN)CC(=O)N(CC(=O)N(CCCCN)CC(=O)N(CC(=O)N(CCCCN)CC(=O)N(CC(=O)N(CCCCN)CC(=O)N(CC(N)=O)Cc1ccc(Br)cc1)Cc1ccc(Br)cc1)Cc1ccc(Br)cc1)Cc1ccc(Br)cc1)Cc1ccc(Br)cc1)Cc1ccc(Br)cc1 [Compound 31] (H-[Nlys][N(4-Br-benzyl)Gly][Nlys][N(4-Br-benzyl)Gly][Nlys][N(4-Br-benzyl)Gly][Nlys][N(4-Br-benzyl)Gly][Nlys][N(4-Br-benzyl)Gly][Nlys][N(4-Br-benzyl)Gly]-NH2) , system Methicillin-resistant S. aureus USA 300, measured Minimal inhibitory concentration MRSA^c is 2 mg/L
